The origin of these recorded values is patent US20250057819A1.

Tested on: SARS-CoV-2 (Alpha)
Assay: microbe, parasite or virus in culture
Assay type: cell-based
Settings: Severe acute respiratory syndrome coronavirus 2; Huh7.5 cells, monotherapy
Structures can show the parent of a compound that is named as a salt.
endpointLabel: pEC50
Please keep in mind that pEC50 is minus log10 of the molar concentration; only the number is needed.

CCN(CC)CCOc1ccc2c(c1)C(=O)c1cc(OCCN(CC)CC)ccc1-2 [Tilorone dihydrochloride] :: 6.60

Q. Which pEC50 is reported for this compound? Cc1c(O)cccc1C(=O)N[C@@H](CSc1ccccc1)[C@H](O)CN1C[C@H]2CCCC[C@H]2C[C@H]1C(=O)NC(C)(C)C [Nelfinavir mesylate]
A. 6.30

###

Tested on: SARS-CoV-2 (Beta)
Test: microbe, parasite or virus in culture
Format: cell-based
Conditions: Huh7.5 cells, monotherapy
endpointLabel: pEC50
Please keep in mind that pEC50 is minus log10 of the molar concentration; only the number is needed.

Q. Which pEC50 is reported for this compound? CC(C)C(=O)OC[C@H]1O[C@@H](n2cc/c(=N\O)[nH]c2=O)[C@H](O)[C@@H]1O
A. 6.96
